Biological target: T1, recombinant cyno monkey PCSK9 protein (cyno monkey, UniProt A8T666 31-692 (rhesus entry), limits assumed, biotin-labelled in the ELISA (Biotin labeling kit))
T1 construct: also called cyno PCSK9; Cyno Monkey PCSK9-His
T1 sequence (A8T666 31-692 limits assumed): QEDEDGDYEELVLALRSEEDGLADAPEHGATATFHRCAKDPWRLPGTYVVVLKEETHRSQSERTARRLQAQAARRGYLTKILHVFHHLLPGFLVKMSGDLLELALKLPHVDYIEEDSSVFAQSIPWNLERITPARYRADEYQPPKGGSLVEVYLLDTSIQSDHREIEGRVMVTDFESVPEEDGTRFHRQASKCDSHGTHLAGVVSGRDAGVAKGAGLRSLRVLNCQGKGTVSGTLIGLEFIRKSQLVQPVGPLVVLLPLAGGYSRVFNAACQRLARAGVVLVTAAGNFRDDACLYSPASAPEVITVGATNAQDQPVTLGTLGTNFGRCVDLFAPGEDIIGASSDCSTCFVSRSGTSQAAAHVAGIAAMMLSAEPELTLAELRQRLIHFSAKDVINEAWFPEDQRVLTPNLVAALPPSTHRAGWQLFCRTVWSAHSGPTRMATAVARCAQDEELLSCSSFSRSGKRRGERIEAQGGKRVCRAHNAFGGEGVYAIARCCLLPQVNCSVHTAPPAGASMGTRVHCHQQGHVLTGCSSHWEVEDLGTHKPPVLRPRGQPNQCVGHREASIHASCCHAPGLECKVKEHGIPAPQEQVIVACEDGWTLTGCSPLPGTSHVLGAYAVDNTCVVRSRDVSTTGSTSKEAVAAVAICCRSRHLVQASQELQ
Assay: ELISA, biotin-cyno PCSK9 on streptavidin plate; antibody 0.0067 nM
Measured OD450 nm, listed per entry.
Field: numeric (OD450 nm). Do not append units.

The following binders have reported results that may help.
152G2F7, chimeric anti-PCSK9 mAb purified from hybridoma (antibody, V domains shown, From Harbour H2L2 mice: human variable regions, rat constant regions) VH: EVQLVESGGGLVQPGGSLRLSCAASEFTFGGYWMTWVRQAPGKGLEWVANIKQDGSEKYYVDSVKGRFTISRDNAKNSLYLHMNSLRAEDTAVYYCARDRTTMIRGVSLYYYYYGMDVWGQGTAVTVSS VL: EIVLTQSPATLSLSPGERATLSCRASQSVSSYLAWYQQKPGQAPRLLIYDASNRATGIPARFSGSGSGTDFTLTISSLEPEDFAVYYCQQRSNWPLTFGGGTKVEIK : 0.2
139G1C5, chimeric anti-PCSK9 mAb purified from hybridoma (antibody, V domains shown, From Harbour H2L2 mice: human variable regions, rat constant regions) VH: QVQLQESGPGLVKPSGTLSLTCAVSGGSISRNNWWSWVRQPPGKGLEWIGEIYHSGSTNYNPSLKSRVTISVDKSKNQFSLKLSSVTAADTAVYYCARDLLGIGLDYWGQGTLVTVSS VL: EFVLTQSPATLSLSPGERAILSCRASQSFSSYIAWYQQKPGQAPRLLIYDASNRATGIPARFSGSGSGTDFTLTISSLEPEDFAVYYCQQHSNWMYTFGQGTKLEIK : 0.27
74C10A8, chimeric anti-PCSK9 mAb purified from hybridoma (antibody, V domains shown, From Harbour H2L2 mice: human variable regions, rat constant regions) VH: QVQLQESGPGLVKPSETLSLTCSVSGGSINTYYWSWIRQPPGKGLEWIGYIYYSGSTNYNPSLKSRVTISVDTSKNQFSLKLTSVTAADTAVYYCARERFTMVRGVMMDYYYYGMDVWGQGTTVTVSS VL: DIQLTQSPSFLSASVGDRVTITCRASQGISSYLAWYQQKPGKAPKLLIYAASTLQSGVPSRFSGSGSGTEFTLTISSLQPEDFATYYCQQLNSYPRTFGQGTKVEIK : 0.27

Continue with the binder presented below.
Quick note, OD450 nm for 76A1B11, chimeric anti-PCSK9 mAb purified from hybridoma (antibody, V domains shown, From Harbour H2L2 mice: human variable regions, rat constant regions) VH: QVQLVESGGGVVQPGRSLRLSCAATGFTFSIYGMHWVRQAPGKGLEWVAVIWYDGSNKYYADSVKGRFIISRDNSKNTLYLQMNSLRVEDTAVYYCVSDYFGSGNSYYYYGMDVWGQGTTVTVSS VL: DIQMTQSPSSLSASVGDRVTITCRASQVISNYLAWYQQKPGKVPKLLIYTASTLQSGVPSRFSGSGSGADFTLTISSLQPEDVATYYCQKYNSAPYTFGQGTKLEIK landed at 0.26
